Values were extracted from the supplement of paper PMC5722580.

- Tested on: NK-92
- Assay details: drug sensitivity score (viability inhibition); higher = more sensitive
- Condition details: 72 h; IL2 2.5 ng/ml
Measurement kind: drug sensitivity score (DSS)
// return numeric value only (unit: DSS, not printed)

Recorded results for 3 compounds are shown here.
O=C(Cc1ccc(-c2ccc(OCCN3CCOCC3)cc2)cn1)NCc1ccccc1 [KX2-391] :: 32.4
COc1c(C)cnc(Cn2cnc3c(Cl)nc(N)nc32)c1C [BIIB021] :: 23
O=P1(N(CCCl)CCCl)NCCCO1 (centres undefined) [Cyclophosphamide] :: 0

Now let's try a different one.
Inquiry: // lookup drug sensitivity score for CC1(C)CCC(c2ccc(Cl)cc2)=C(CN2CCN(c3ccc(C(=O)NS(=O)(=O)c4ccc(N[C@H](CCN5CCOCC5)CSc5ccccc5)c(S(=O)(=O)C(F)(F)F)c4)cc3)CC2)C1 [Navitoclax]
Reply text: 14.2

---

- Test system: NK-92
- Assay details: drug sensitivity score (viability inhibition); higher = more sensitive
- Condition details: 72 h; IL2 2.5 ng/ml
Measurement kind: drug sensitivity score (DSS)
// return numeric value only (unit: DSS, not printed)

O=[N+]([O-])c1ccc2c(c1)S(=O)(=O)C=C2 :: 13.2

Inquiry: // lookup drug sensitivity score for CO[C@H]1C[C@@H]2CC[C@@H](C)[C@@](O)(O2)C(=O)C(=O)N2CCCC[C@H]2C(=O)O[C@H]([C@H](C)C[C@@H]2CC[C@@H](OCCO)[C@H](OC)C2)CC(=O)[C@H](C)/C=C(\C)[C@@H](O)[C@@H](OC)C(=O)[C@H](C)C[C@H](C)/C=C/C=C/C=C/1C
Reply text: 1.19

Inquiry: // lookup drug sensitivity score for O=S(=O)(c1cccc2cnccc12)N1CCCNCC1
Reply text: 2.52

Inquiry: // lookup drug sensitivity score for CCN(CC)CCOc1ccc(C(=C(Cl)c2ccccc2)c2ccccc2)cc1
Reply text: 5.49

---

- System: YT
- Assay details: drug sensitivity score (viability inhibition); higher = more sensitive
- Condition details: 72 h; IL2 2.5 ng/ml
Binary call on drug sensitivity score: satisfied from 9 DSS upward, not satisfied beneath that.

Previously resolved entries follow.
O=[N+]([O-])c1ccc2c(c1)S(=O)(=O)C=C2 [Stattic] :: satisfied
COc1ccc(-c2cc3c(C)nc(N)nc3n([C@H]3CC[C@H](OCCO)CC3)c2=O)cn1 :: satisfied
COc1ncc(-c2ccc3nccc(-c4ccnnc4)c3c2)cc1NS(=O)(=O)c1ccc(F)cc1F [Omipalisib] :: satisfied

Turning now to a further molecule:
Inquiry: Check this molecule for drug sensitivity score at or above 9 DSS: CN(C)C[C@@H]1CCn2cc(c3ccccc32)C2=C(C(=O)NC2=O)c2cn(c3ccccc23)CCO1 [Ruboxistaurin]
Reply text: not satisfied

---

Recorded drug sensitivity score by entry
- Test system: NK-92
- Assay details: drug sensitivity score (viability inhibition); higher = more sensitive
- Condition details: 72 h; IL2 2.5 ng/ml
// return numeric value only (unit: DSS, not printed)

Inquiry: // lookup drug sensitivity score for CN1CC[C@H](c2c(O)cc(O)c3c(=O)cc(-c4ccccc4Cl)oc23)[C@H](O)C1
Reply text: 22.6

Inquiry: // lookup drug sensitivity score for C[C@@H]1CCN(C(=O)CC#N)C[C@@H]1N(C)c1ncnc2[nH]ccc12
Reply text: 13.2

Inquiry: // lookup drug sensitivity score for COC(=O)C[C@](O)(CCCC(C)(C)O)C(=O)O[C@@H]1C(OC)=C[C@]23CCCN2CCc2cc4c(cc2[C@H]13)OCO4
Reply text: 31.2

---

- System: HEK293-SIE STAT3 Y640F
- Assay details: drug sensitivity score (inhibition of STAT3 luciferase reporter); higher = stronger inhibition
- Condition details: 6 h; IL6 0 ng/ml
Measurement kind: drug sensitivity score
Please report the result as a number followed by the unit.

Recorded results for 4 compounds are shown here.
Cc1cc(Nc2nc(N[C@@H](C)c3ncc(F)cn3)ncc2Cl)[nH]n1 [AZD1480] :: 8.77 DSS
C[C@@H]1C[C@H]2[C@@H]3CCC4=CC(=O)C=C[C@]4(C)[C@@]3(F)[C@@H](O)C[C@]2(C)[C@@]1(O)C(=O)CO [Dexamethasone] :: 2.6 DSS
CS(=O)(=O)N1CCN(Cc2cc3nc(-c4cccc5[nH]ncc45)nc(N4CCOCC4)c3s2)CC1 [Pictilisib] :: 5 DSS
CCN(CC)CCOc1ccc(C(=C(Cl)c2ccccc2)c2ccccc2)cc1 [Clomifene] :: 0 DSS

Now let's try a different one.
Inquiry: Form: Entry = O=C(Cc1ccc(-c2ccc(OCCN3CCOCC3)cc2)cn1)NCc1ccccc1 [KX2-391] | System = HEK293-SIE STAT3 Y640F | drug sensitivity score = ____
Reply text: 0 DSS

---

Recorded drug sensitivity score by entry
- System: YT
- Assay details: drug sensitivity score (viability inhibition); higher = more sensitive
- Condition details: 72 h; IL2 2.5 ng/ml
// return numeric value only (unit: DSS, not printed)

Recorded results for 2 compounds are shown here.
O=C(Cc1ccc(-c2ccc(OCCN3CCOCC3)cc2)cn1)NCc1ccccc1 [KX2-391] :: 31.7
NC1(c2ccc(-c3nc4ccn5c(=O)[nH]nc5c4cc3-c3ccccc3)cc2)CCC1 [MK-2206] :: 2.45

Inquiry: // lookup drug sensitivity score for Cn1c(=O)n(-c2ccc(C(C)(C)C#N)cc2)c2c3cc(-c4cnc5ccccc5c4)ccc3ncc21 [Dactolisib]
Reply text: 13.4

Inquiry: // lookup drug sensitivity score for C[C@H]1C[C@@H]2[C@H]([C@@H](O)C[C@@]3(C)[C@H]2CC[C@]3(O)C(=O)CO)[C@@]2(C)C=CC(=O)C=C12 [Methylprednisolone]
Reply text: 8.81

Inquiry: // lookup drug sensitivity score for O=C(NC[C@H](O)CO)c1ccncc1Nc1ccc(I)cc1F [Pimasertib]
Reply text: 0.0567

---

- Test system: HEK293-SIE STAT3 Y640F
- Assay details: drug sensitivity score (inhibition of STAT3 luciferase reporter); higher = stronger inhibition
- Condition details: 6 h; IL6 0 ng/ml
Measurement kind: drug sensitivity score (DSS)
// return numeric value only (unit: DSS, not printed)

Cn1cc(CNCC2CCN(c3ncc(C(=O)NO)cn3)CC2)c2ccccc21 :: 1.9
COc1cc2c(cc1-c1c(C)noc1C)ncc1[nH]c(=O)n([C@H](C)c3ccccn3)c12 :: 4.4
FC(F)c1nc2ccccc2n1-c1nc(N2CCOCC2)nc(N2CCOCC2)n1 :: 4.7
C#Cc1cccc(Nc2ncnc3cc4c(cc23)OCCOCCOCCO4)c1 :: 0

Now let's try a different one.
Inquiry: // lookup drug sensitivity score for C[C@@H]1C=C2C(=O)O[C@@H]3CC[C@H](C1)[C@]23O
Reply text: 0

---

Recorded log10(drug sensitivity score) by entry
- System: YT
- Assay details: drug sensitivity score (viability inhibition); higher = more sensitive
- Condition details: 72 h; IL2 2.5 ng/ml
Would you kindly interpret these values as log10 of drug sensitivity score expressed in DSS?

C[C@@H]1C[C@H]2[C@@H]3CCC4=CC(=O)C=C[C@]4(C)[C@@]3(F)[C@@H](O)C[C@]2(C)[C@@]1(O)C(=O)CO :: 0.99
CNC(=O)c1ccccc1Sc1ccc2c(/C=C/c3ccccn3)n[nH]c2c1 :: 0.95

Inquiry: // lookup log10(drug sensitivity score) for CC[C@H](Nc1ncnc2[nH]cnc12)c1nc2cccc(F)c2c(=O)n1-c1ccccc1
Reply text: 0.15

Inquiry: // lookup log10(drug sensitivity score) for FC(F)c1nc2ccccc2n1-c1nc(N2CCOCC2)nc(N2CCOCC2)n1
Reply text: 0.90

Inquiry: // lookup log10(drug sensitivity score) for C=CCn1c(=O)c2cnc(Nc3ccc(N4CCN(C)CC4)cc3)nc2n1-c1cccc(C(C)(C)O)n1
Reply text: 1.30

---

Recorded drug sensitivity score by entry
- Test system: YT
- Assay details: drug sensitivity score (viability inhibition); higher = more sensitive
- Condition details: 72 h; IL2 2.5 ng/ml

Recorded results for 3 compounds are shown here.
Cc1cc(Nc2nc(N[C@@H](C)c3ncc(F)cn3)ncc2Cl)[nH]n1 :: 6.65 DSS
CCN(CC)CCOc1ccc(C(=C(Cl)c2ccccc2)c2ccccc2)cc1 :: 4.23 DSS
CC(C)n1nc(-c2ccc3oc(N)nc3c2)c2c(N)ncnc21 :: 11.9 DSS

Inquiry: // lookup drug sensitivity score for CCNC(=O)c1noc(-c2cc(C(C)C)c(O)cc2O)c1-c1ccc(CN2CCOCC2)cc1
Reply text: 18.6 DSS

Inquiry: // lookup drug sensitivity score for Cn1cc(CNCC2CCN(c3ncc(C(=O)NO)cn3)CC2)c2ccccc21
Reply text: 14.2 DSS

Inquiry: // lookup drug sensitivity score for C[C@@H]1CC(=O)c2c(ccc3c2C(=O)c2cccc(O)c2C3=O)C1
Reply text: 5.75 DSS

Inquiry: // lookup drug sensitivity score for COc1cc(Nc2ncc(F)c(Nc3ccc4c(n3)N(COP(=O)(O)O)C(=O)C(C)(C)O4)n2)cc(OC)c1OC
Reply text: 2.81 DSS

Inquiry: // lookup drug sensitivity score for CC(=O)c1c(C)c2cnc(Nc3ccc(N4CCNCC4)cn3)nc2n(C2CCCC2)c1=O
Reply text: 5.11 DSS

Inquiry: // lookup drug sensitivity score for O=P1(N(CCCl)CCCl)NCCCO1 (stereo not drawn) [Cyclophosphamide]
Reply text: 0 DSS

Inquiry: // lookup drug sensitivity score for CC(C)NC[C@@H](C(=O)N1CCN(c2ncnc3c2[C@H](C)C[C@H]3O)CC1)c1ccc(Cl)cc1
Reply text: 0.319 DSS

Inquiry: // lookup drug sensitivity score for Cc1[nH]c2ccccc2c1CCNCc1ccc(/C=C/C(=O)NO)cc1
Reply text: 18.8 DSS

Inquiry: // lookup drug sensitivity score for CNC(=O)c1cc(Oc2ccc(NC(=O)Nc3ccc(Cl)c(C(F)(F)F)c3)c(F)c2)ccn1
Reply text: 8.71 DSS

Inquiry: // lookup drug sensitivity score for O=S(=O)(c1cccc2cnccc12)N1CCCNCC1
Reply text: 1.44 DSS

Inquiry: // lookup drug sensitivity score for C[C@@H]1C=C2C(=O)O[C@@H]3CC[C@H](C1)[C@]23O
Reply text: 1.84 DSS

Inquiry: // lookup drug sensitivity score for CNC(=O)c1cc(Oc2ccc(NC(=O)Nc3ccc(Cl)c(C(F)(F)F)c3)cc2)ccn1
Reply text: 0 DSS
